Origin of values: the supplement of paper PMC8253809

System: HGGX6 (H3.3 G34R paediatric high-grade glioma line)
Experiment: growth inhibition (% activity, log2 RLU normalised to DMSO / staurosporine); higher = more growth inhibition
Settings: 33 µM
property.measured: growth inhibition (%)
# value in %; strip the unit string

>>> print(df.to_string())
                  compound_structure_string  property_measured  numeric_result
0            OC(c1ccccc1)(c1ccccc1)C1CCNCC1  growth inhibition           0.616
1  C=C1C[C@@H]2[C@H](CC[C@]3(C)C(=O)CC[C@@H]23)[C@@]2(C)C=CC(=O)C=C12  growth inhibition           -1.58
2  C[C@]12CC[C@H](O)CC1=CC[C@@H]1[C@@H]2CC[C@]2(C)C(=O)CC[C@@H]12  growth inhibition               4
3       CCN(C)C(=O)Oc1cccc([C@H](C)N(C)C)c1  growth inhibition           0.109

Now for a further compound.
Given the compound `COc1cc2c(cc1OC)[C@@]13CCN4CC5=CCO[C@H]6CC(=O)N2[C@H]1[C@H]6[C@H]5C[C@H]43` , what is its reported growth inhibition? -3.27

---

Tested on: DIPGX29 (H3.3 K27M diffuse intrinsic pontine glioma line)
Test: growth inhibition (% activity, log2 RLU normalised to DMSO / staurosporine); higher = more growth inhibition
Details: 33 µM
Entries and their measured growth inhibition follow.
Respond with the bare value in %.

>>> print(df.to_string())
                                   compound  numeric_result
0          C[N+](C)(C)CCCCCCCCCC[N+](C)(C)C           0.486
1               CCCCCCCCCCCCCCCC[n+]1ccccc1            59.1
2  O=C(O[C@H]1C[N+]2(CCCOc3ccccc3)CCC1CC2)C(O)(c1cccs1)c1cccs1           -1.76
3  N[C@@H]1C[C@H]1c1ccccc1.N[C@H]1C[C@@H]1c1ccccc1             1.4
4  CC(=O)OC1CN2CCC1CC2 (stereo unspecified)          -0.533
5  CC(O)(CS(=O)(=O)c1ccc(F)cc1)C(=O)Nc1ccc(C#N)c(C(F)(F)F)c1 (stereo unspecified)           0.345
6  O=P1(N(CCCl)CCCl)NCCCO1 (stereo unspecified)           -1.28
7  C[N+]1(C)[C@@H]2C[C@@H](OC(=O)[C@H](CO)c3ccccc3)C[C@H]1[C@@H]1O[C@@H]12          -0.834
8  COc1cc2c(cc1OC)[C@@]13CCN4CC5=CCO[C@H]6CC(=O)N2[C@H]1[C@H]6[C@H]5C[C@H]43           -3.31
9  COc1ccc(OC)c(C(O)C(C)N)c1 (stereo unspecified)           0.864

Read the next record carefully.
// lookup growth inhibition | system=DIPGX29 | key= C=CCN.ClCC1CO1 (stereo unspecified) 0.23

---

Here, each record is paired with measured growth inhibition data.
Tested on: SUDIPGVI (diffuse intrinsic pontine glioma line)
Experiment: growth inhibition (% activity, log2 RLU normalised to DMSO / staurosporine); higher = more growth inhibition
Conditions: 33 µM
Output spec: scalar in %, unitless text.

compound	property.measured	numeric.result
C[C@@H]1CC[C@H]2[C@@H](C)C(=O)O[C@@H]3O[C@@]4(C)CC[C@@H]1[C@]32OO4	growth inhibition	-4.44
C=C(C)[C@@H]1[C@H]2OC(=O)[C@@H]1[C@]1(O)C[C@H]3O[C@]34C(=O)O[C@H]2[C@]14C	growth inhibition	2.74
CN(C)C(=O)Oc1cccc([N+](C)(C)C)c1	growth inhibition	-1.83
C[N+](C)(C)CCCCCCCCCC[N+](C)(C)C	growth inhibition	4.87
CC(C)NCC(O)c1ccccc1Cl (stereo not drawn)	growth inhibition	0.486

Please state recorded growth inhibition (tested on SUDIPGVI) of `Cc1cccc(C)c1NC1=NCCCS1` -4.55

Fill in the recorded growth inhibition for this compound, with SUDIPGVI as test system: Cc1c(N)nc(C(CC(N)=O)NCC(N)C(N)=O)nc1C(=O)NC(C(=O)NC(C)C(O)C(C)C(=O)NC(C(=O)NCCc1nc(-c2nc(C(=O)NCCC[S+](C)C)cs2)cs1)C(C)O)C(O[C@@H]1O[C@@H](CO)[C@@H](O)[C@H](O)[C@@H]1O[C@H]1O[C@H](CO)[C@@H](O)[C@H](OC(N)=O)[C@@H]1O)c1cnc[nH]1 (stereo partly drawn) 1.68

Lab request: please report growth inhibition under test system SUDIPGVI for `OC(c1ccccc1)(c1ccccc1)C1CCNCC1` 0.144
